SYSTEM_UNDER_TEST: CDK2 (human)
PROTOCOL_TEXT: Cell-Based Assay
CONDITION_NOTES: rko
pIC50: −log10 of the molar value.
MEASURED_METRIC: pIC50

Answered cases to consult:
- MOLECULE: "O=C1Nc2ccc3ncsc3c2/C1=C/Nc1ccc2nn[nH]c2c1"
  pIC50: "< 5.30"
- MOLECULE: "CNS(=O)(=O)Cc1ccc(NN=C2C(=O)Nc3cc(C)c(O)c(C)c32)cc1"
  pIC50: "6.30 to 7.00"
- MOLECULE: "NS(=O)(=O)c1ccc(NN=C2C(=O)Nc3ccc(-c4cnco4)cc32)cc1"
  pIC50: "6.00 to 6.22"
- MOLECULE: "CCC(C)Cc1cccc2c1C(=NNc1ccc(S(N)(=O)=O)cc1)C(=O)N2 (configuration not stated)"
  pIC50: "5.30 to 5.96"
- MOLECULE: "CS(=O)(=O)Cc1ccc(N/C=C2\\C(=O)Nc3ccc4ncsc4c32)cc1"
  pIC50: "5.30 to 5.96"
- MOLECULE: "CN(C)S(=O)(=O)c1ccc(N/C=C2\\C(=O)Nc3ccc(-c4cnco4)cc32)cc1"
  pIC50: "5.30 to 5.96"

# input for lookup
## Task Name the recorded pIC50 of the item CNS(=O)(=O)Cc1ccc(NN=C2C(=O)Nc3ccc4ncccc4c32)cc1 in your answer.
## Result 5.30 to 5.96
